- System tested: uridine phosphorylase
- Measurement description: Inhibition of uridine phosphorylase from mouse liver (105,000×g supernatant of liver homogenate)
- Format: biochemical
- Assay conditions: mouse liver enzyme; apparent Ki = Ki(1+[S]/Km); type of inhibition not characterized
// Ki lookup, one value per entry
Quantity kind: Ki (nM)

Compound | Quantity kind | Reported measurement
O=c1[nH]c(=O)n(COC(CO)CO)cc1Cc1ccccc1 [HM-BAU] | Ki | 1600
O=c1[nH]c(=O)n(COC(CO)CO)cc1Cc1cccc(OCc2ccccc2)c1 [HM-BBAU] | Ki | 320

----------
- System tested: uridine phosphorylase
- Measurement description: Inhibition of uridine phosphorylase from human liver (105,000×g supernatant of liver homogenate)
- Assay type: biochemical
- Assay conditions: human liver enzyme; apparent Ki = Ki(1+[S]/Km); type of inhibition not characterized
pKi: −log10 of the molar value.
// pKi lookup, one value per entry

Cpd smiles | pKi
O=c1[nH]c(=O)n(COC(CO)CO)cc1Cc1cccc(OCc2ccccc2)c1 | 6.19
O=c1[nH]c(=O)n(COC(CO)CO)cc1Cc1ccccc1 | 5.60
